target_desc: T1, CD137-hisFc fusion protein (Sino Biological Cat 10041-H03H) (human, UniProt Q07011 24-186)
T1 construct: Bought; also called recombinant human CD137 (fused with human Fc and His tag); not shown: His tag and human Fc
test: BLI Octet, Fab
Simple rule here: Kd less than 10 nM is Y, otherwise N.

{"binder": "Fab 5409 (Fab, V domains shown, Fab from E. coli; also called VH37/VL37) VH: EVQLVESGGGLVQPGGSLRLSCAASGYSISSGHHWAWIRQAPGKGLEWVSVISGSGSSTYYADSVKGRFTISRDNSKNTLYLQLNSLRAEDTAVYYCAREGSDTVLGDWFAYWGQGTLVTVSS VL: DIQLTQSPSSLSASVGDRVTITCRASQGISSYLAWYQQKPGKAPKLLIYDASNLETGVPSRFSGSGSGTDFTLTISSLQPEDFATYYCQQGYSTWTFGQGTKVEIKR", "cat": "N"}
{"binder": "Fab 4137 (Fab, V domains shown, Fab from E. coli; also called VH7/VL7) VH: EVQLVESGGGLVQPGGSLRLSCAASGYSITSGYYWGWIRQAPGKGLEWVSGISGSGSSTYYADSVKGRFTISRDNSKNTLYLQLNSLRAEDTAVYYCARGTYSFDVWGQGTLVTVSS VL: DIQLTQSPSSLSASVGDRVTITCRASQGISSDLAWYQQKPGKAPKLLIYAASTLQSGVPSRFSGSGSGTDFTLTISSLQPEDFATYYCQQYYSYITFGQGTKVEIKR", "cat": "Y"}
{"binder": "Fab 5371 (Fab, V domains shown, Fab from E. coli; also called VH33/VL33) VH: EVQLVESGGGLVQPGGSLRLSCAASGFSLSTSGVGVAWIRQAPGKGLEWVSYISGDGGSTYYADSVKGRFTISRDNSKNTLYLQLNSLRAEDTAVYYCAREGSDVVAGDWFAYWGQGTLVTVSS VL: DIQLTQSPSSLSASVGDRVTITCRASQDISSVLAWYQQKPGKAPKLLIYDASSLESGVPSRFSGSGSGTDFTLTISSLQPEDFATYYCQQGYQIWTFGQGTKVEIKR", "cat": "Y"}
{"binder": "Fab 5407 (Fab, V domains shown, Fab from E. coli; also called VH35/VL35) VH: EVQLVESGGGLVQPGASLRLSCAASGFSLSTGGVGVAWIRQAPGKGLEWVSSISGYGSTTYYADSVKGRFTISRDNSKNTLYLQLNSLRAEDTAVYYCAREGSDAVLGDWFGYWGQGTLVTVSS VL: DIQLTQSPSSLSASVGDRVTITCQASQDITTYLAWYQQKPGKAPKLLIYDASNRATGIPSRFSGSGSGTDFTLTISSLQPEDFATYYCQQGYYLWTFGQGTKVEIKR", "cat": "Y"}
{"binder": "Fab 7079 (Fab, V domains shown, Fab from E. coli; also called VH42/VL42) VH: EVQLVESGGGLVQPGGSLRLSCAASGFSLSTSGVGVAWIRQAPGKGLEWVSSISGYGGTTYYADSVKGRFTISRDNSKNTLYLQLNSLRAEDTAVYYCAREGSDTVLGDWFAYWGQGTLVTVSS VL: DIQLTQSPSSLSASVGDRVTITCRASQGISSYLAWYQQKPGKAPKLLIYDASNLETGVPSRFSGSGSGTDFTLTISSLQPEDFATYYCQQYYTTPLTFGQGTKVEIKR", "cat": "N"}
{"binder": "Fab 7080 (Fab, V domains shown, Fab from E. coli; also called VH43/VL43) VH: EVQLVESGGGLVQPGGSLRLSCAASGFSLSTGGVGVGWIRQAPGKGLEWVSYISGAGGTTYYADSVKGRFTISRDNSKNTLYLQLNSLRAEDTAVYYCAREGSDTVLGDWFAYWGQGTLVTVSS VL: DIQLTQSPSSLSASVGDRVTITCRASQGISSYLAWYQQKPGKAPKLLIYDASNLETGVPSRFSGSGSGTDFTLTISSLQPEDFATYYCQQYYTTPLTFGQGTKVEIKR", "cat": "N"}
{"binder": "Fab 5367 (Fab, V domains shown, Fab from E. coli; also called VH31/VL31) VH: EVQLVESGGGLVQPGGSLRLSCAASGFSLSTSGVGVGWIRQAPGKGLEWVSGISGAGDSTYYADSVKGRFTISRDNSKNTLYLQLNSLRAEDTAVYYCAREGSDTVLGDWFAYWGQGTLVTVSS VL: DIQLTQSPSSLSASVGDRVTITCRASQDIRSYLAWYQQKPGKAPKLLIYDASNRATGIPSRFSGSGSGTDFTLTISSLQPEDFATYYCQQGYSIWTFGQGTKVEIKR", "cat": "N"}
{"binder": "Fab 4134 (Fab, V domains shown, Fab from E. coli; also called VH6/VL6) VH: EVQLVESGGGLVQPGGSLRLSCAASGYSISSGHHWGWIRQAPGKGLEWVSGISGYGDTTYYADSVKGRFTISRDNSKNTLYLQLNSLRAEDTAVYYCARDPYSSGSGYFDYWGQGTLVTVSS VL: DIQLTQSPSSLSASVGDRVTITCRASQGISSALGWYQQKPGKAPKLLIYAASSLQSGVPSRFSGSGSGTDFTLTISSLQPEDFATYYCQQSYYTWTFGQGTKVEIKR", "cat": "N"}
